- System Tested: Follistatin-related protein 3 (Homo sapiens) (UniProt O95633)
- Sequence (O95633 whole entry, looked up): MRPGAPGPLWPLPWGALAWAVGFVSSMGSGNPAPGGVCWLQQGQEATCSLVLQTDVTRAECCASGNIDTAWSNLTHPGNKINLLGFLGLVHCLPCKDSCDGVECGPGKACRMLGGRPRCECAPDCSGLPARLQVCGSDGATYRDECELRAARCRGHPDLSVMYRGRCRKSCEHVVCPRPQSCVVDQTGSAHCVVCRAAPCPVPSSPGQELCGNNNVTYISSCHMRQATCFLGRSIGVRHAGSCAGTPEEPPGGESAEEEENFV
- Assay Comment: FSTL3 binders on small-molecule microarrays, primary screen, biochemical, small-molecule microarray, 635 nm fluorescence (AID 1105);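 further: score merges emission near 667 nm and signal to noise per printed spot across three slides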
- Condition: FSTL3 binding, higher = more signal
Assay Readout: composite z-score
Give bare numbers.

Request: composite z-score lookup needed for CN1C(=O)C2C=CC(C(O)c3ccc(F)cc3)N(NC(=O)OC(C)(C)C)C2C1=O (stereo not drawn) , thanks.
Result: 0.15

Request: Thanks! And COc1ccc([Si](C)(C)[C@H]2[C@H](CCO)O[C@@]3(C(=O)N(Cc4ccc(N5C(=O)c6ccccc6Oc6ccccc65)cc4)c4ccccc43)[C@@H]2C)cc1 ?
Result: -1.25

Request: Now the same for CC(=O)NCCCC[C@@H]1NC(=O)[C@@H]2C[C@H](C(=O)NCCCCCCN)[C@H](c3cccc(OCCO)c3)N2C1=O
Result: -0.309

Request: Now try COc1cc2c(cc1O)C(c1cccs1)N(Cc1sc3ccccc3c1Cl)CC2 (stereo not drawn) .
Result: 1.41

Request: Query C=C(COC)/C(=C/C[C@H](OC(C)=O)c1cccc(OCCO)c1)c1cnc2ccccc2c1 next
Result: 1.58

Request: Also need C=CCN1C(=O)[C@]2(O[C@H](CCO)[C@@H]([Si](C)(C)c3ccc(OC)cc3)[C@@H]2C)c2cc(NC(=O)c3ccc(OC)cc3)ccc21 , thanks.
Result: 1.23

Items follow; give composite z-score for each.
1. [N-]=[N+]=NCc1ccccc1C[C@@]1(C(=O)N2CCCCC2)N=C(c2ccc(OCCCO)cc2)O[C@@H]1c1ccccc1CN=[N+]=[N-]
2. CC(=O)N1CC(C(O)C2C=CC3C(=O)NC(=O)C3N2Nc2ccc(Cl)cc2Cl)c2ccccc21 (stereo not drawn)

Result:
1: -0.0105; 2: 0.797

====

- Assay Comment: small-molecule binders of probe aLefty1, primary screen, biochemical, small-molecule microarray, 635/667 nm fluorescence (AID 1153);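 further: score merges spot fluorescence with signal-to-noise ratio from the scanned slide images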
- Condition: higher = more signal
Give measured composite z-score for each item. Keep answers brief.
One number for each entry.

Request: Record request: composite z-score value, item C=CCN1C(=O)[C@]2(O[C@H](CCO)[C@@H]([Si](C)(C)c3ccc(OC)cc3)[C@@H]2C)c2cc(NC(=O)c3ccc(OC)cc3)ccc21
Result: 0.0494

For each listed entry, give its composite z-score.
1. COc1cccc(/C=C(\C#N)C(=O)Nc2c(C)n(C)n(-c3ccccc3)c2=O)c1
2. COc1ccc([Si](C)(C)[C@@H]2[C@@H](CC(=O)N3Cc4ccccc4C[C@H]3CO)O[C@]3(C(=O)N(c4ccccc4)c4ccccc43)[C@H]2C)cc1

Result:
-0.168
0.855

Hi, could you look up composite z-score for each item in my list?
1. COCCCNC(=O)[C@@]1(Sc2ccc(C)cc2)CC(=O)N(Cc2ccccc2Cl)[C@@H]1c1ccc(CO)cc1I
2. COCCOC(=O)N1C(=O)[C@@]2(c3cc(C#CCNC(N)=O)ccc31)[C@H](c1ccc(O)cc1)N1[C@H](c3ccccc3)[C@H](c3ccccc3)OC(=O)[C@H]1[C@@H]2C(N)=O
3. C=CCC(OC(C)=O)[C@@H]1[C@@H](N(Cc2ccc(-c3ccccc3)cc2)C(=O)Cc2ccc(F)cc2)c2cc(OCCCO)ccc2N1C(=O)Cc1ccc2ccccc2c1 (some centres not stated)

Result:
1: 0.0004; 2: -0.67; 3: 0.0774
